ASSAYED SYSTEM: Dipeptidyl peptidase 4 (Homo sapiens, UniProt P27487)
Sequence (P27487 whole entry): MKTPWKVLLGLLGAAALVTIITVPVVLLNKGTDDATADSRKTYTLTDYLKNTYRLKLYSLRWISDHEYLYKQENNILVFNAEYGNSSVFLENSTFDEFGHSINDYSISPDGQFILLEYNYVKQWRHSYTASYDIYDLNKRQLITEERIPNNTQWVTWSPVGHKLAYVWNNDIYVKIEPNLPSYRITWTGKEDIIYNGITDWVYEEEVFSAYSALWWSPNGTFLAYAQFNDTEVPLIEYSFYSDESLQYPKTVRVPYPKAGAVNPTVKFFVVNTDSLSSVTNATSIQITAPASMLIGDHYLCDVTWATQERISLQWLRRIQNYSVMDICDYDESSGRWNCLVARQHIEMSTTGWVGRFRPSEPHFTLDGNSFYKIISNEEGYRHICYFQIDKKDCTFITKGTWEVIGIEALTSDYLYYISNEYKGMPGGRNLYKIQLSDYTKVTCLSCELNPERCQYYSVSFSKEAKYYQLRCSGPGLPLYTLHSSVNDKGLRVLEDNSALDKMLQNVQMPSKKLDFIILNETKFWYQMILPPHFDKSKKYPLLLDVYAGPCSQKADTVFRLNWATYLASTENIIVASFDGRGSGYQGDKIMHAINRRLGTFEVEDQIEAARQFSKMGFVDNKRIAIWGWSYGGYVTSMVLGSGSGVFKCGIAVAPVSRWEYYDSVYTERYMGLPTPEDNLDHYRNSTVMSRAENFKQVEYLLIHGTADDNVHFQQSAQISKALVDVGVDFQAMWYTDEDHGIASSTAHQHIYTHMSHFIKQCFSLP
ASSAY EXPLANATION: Inhibition of DPP4
For each entry below, report its pIC50 value.
Scale note: pIC50 = -log10(concentration in M).

*Q* Report pIC50 for N[C@@H](CC(=O)N1CCN(c2ccc(Cl)cc2)CC1)Cc1ccccc1F tested on Dipeptidyl peptidase 4 (Homo sapiens, UniProt P27487).
*A* 5.90

*Q* Report pIC50 for N[C@H](C(=O)N1CCC(F)(F)C1)[C@@H]1CCN(S(=O)(=O)c2ccc(OC(F)(F)F)cc2)C1 tested on Dipeptidyl peptidase 4 (Homo sapiens, UniProt P27487).
*A* 6.00

*Q* Report pIC50 for CC(C)[C@H](Oc1ccc(CNC(=O)[C@@H]2CCCN2C(=O)C[C@H](N)Cc2cc(F)c(F)c(F)c2F)cc1)C(=O)O tested on Dipeptidyl peptidase 4 (Homo sapiens, UniProt P27487).
*A* 8.10
